Source of measurements: patent US8252737B2

# method.summary: RP-HPLC temperature profiling (hydrophobicity and self-association/dimerization parameter PA)
# Type: physicochemical
# particulars: non-polar face substitutions; retention time difference relative to native peptide V681 (NVL) at 80° C.; relative hydrophobicity
Square brackets hold non-standard residues; d marks the D form. Ends that are not written are not given here.
Exercise: for every item that follows, state its recorded ΔtR (X-NVL) (min) 80° C..
Include the unit right after the number.

Input line: Fill in the blank: the reported ΔtR (X-NVL) (min) 80° C. of Ac-KWKSFLKTFKSALKTVLHTALKAISS-NH2 [NLL] is ____.
Output line: 1.19 min

Input line: Fill in the blank: the reported ΔtR (X-NVL) (min) 80° C. of Ac-KWKSFLKTFKSASKTVLHTALKAISS-NH2 [NSL] is ____.
Output line: -8.21 min

Input line: Fill in the blank: the reported ΔtR (X-NVL) (min) 80° C. of NLD: V681 analog with D-Leu at position 13 (non-polar face) (KWKSFLKTFKSA[dL]KTVLHTALKAISS-NH2; not fully specified) is ____.
Output line: -2.80 min

Input line: Fill in the blank: the reported ΔtR (X-NVL) (min) 80° C. of Ac-KWKSFLKTFKSAGKTVLHTALKAISS-NH2 [NG] is ____.
Output line: -9.09 min

----------
# method.summary: RP-HPLC temperature profiling (hydrophobicity and self-association/dimerization parameter PA)
# Format: physicochemical
# particulars: maximal RP-HPLC retention time during temperature profiling 5-80° C.
Square brackets hold non-standard residues; d marks the D form. Ends that are not written are not given here.
Exercise: for every item that follows, state its recorded tR (min) Max.
Provide the reading as a plain figure in min.

Input line: Fill in the blank: the reported tR (min) Max of PLL: V681 analog with L-Leu at position 11 (polar face) (KWKSFLKTFKLAVKTVLHTALKAISS) is ____.
Output line: 51.23

Input line: Fill in the blank: the reported tR (min) Max of PAL: V681 analog with L-Ala at position 11 (polar face) (KWKSFLKTFKAAVKTVLHTALKAISS) is ____.
Output line: 50.57

Input line: Fill in the blank: the reported tR (min) Max of NLD: V681 analog with D-Leu at position 13 (non-polar face) (KWKSFLKTFKSA[dL]KTVLHTALKAISS-NH2; not fully specified) is ____.
Output line: 46.37

Input line: Fill in the blank: the reported tR (min) Max of Ac-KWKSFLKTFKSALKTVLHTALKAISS-NH2 [NLL] is ____.
Output line: 50.45

----------
# method.summary: RP-HPLC temperature profiling (hydrophobicity and self-association/dimerization parameter PA)
# Type: physicochemical
# particulars: non-polar face substitutions; retention time difference relative to native peptide V681 (NVL) at 5° C.; relative hydrophobicity
Square brackets hold non-standard residues; d marks the D form. Ends that are not written are not given here.
Exercise: for every item that follows, state its recorded ΔtR (X-NVL) (min) 5° C..
Provide the reading as a plain figure in min.

Input line: Fill in the blank: the reported ΔtR (X-NVL) (min) 5° C. of Ac-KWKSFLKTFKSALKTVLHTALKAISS-NH2 [NLL] is ____.
Output line: 0.06

Input line: Fill in the blank: the reported ΔtR (X-NVL) (min) 5° C. of Ac-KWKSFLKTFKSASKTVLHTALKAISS-NH2 [NSL] is ____.
Output line: -7.38

Input line: Fill in the blank: the reported ΔtR (X-NVL) (min) 5° C. of NLD: V681 analog with D-Leu at position 13 (non-polar face) (KWKSFLKTFKSA[dL]KTVLHTALKAISS-NH2; not fully specified) is ____.
Output line: -3.00

Input line: Fill in the blank: the reported ΔtR (X-NVL) (min) 5° C. of Ac-KWKSFLKTFKSAGKTVLHTALKAISS-NH2 [NG] is ____.
Output line: -8.14
